Source listed as the supplement of paper PMC10567573.

B1: MAGEA6 (parent)
chain: KISGGPRISYPLLHEWALREGEE

# Variants of: B1
# Assay Remarks: protein stability index of a GFP-peptide fusion (GPS, HEK-293T) (PSI 1-6); higher = more stable;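 further: lentivirally expressed fusions sorted by FACS into six bins by GFP to DsRed ratio, PSI derived from sequencing read proportions per bin multiplied by bin number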
# Experimental Conditions: c terminus: native
Assign class by protein stability index: not lower than 2 means MET; lower than 2 means NOT MET.

Use these answered entries as a reference point.
L18I
MET
R19N
NOT MET
E23P
NOT MET
E23G
MET
E22F
MET
P6G
NOT MET
R19L
MET
K1Q
MET

# bool: protein stability index of `G4C` >= 2 MET

# bool: protein stability index of `R19F` >= 2 MET

# bool: protein stability index of `E22V` >= 2 NOT MET

# bool: protein stability index of `E23D` >= 2 MET

# bool: protein stability index of `R19E` >= 2 MET

# bool: protein stability index of `E15G` >= 2 MET

# bool: protein stability index of `H14S` >= 2 MET
